TARGET_OF_ASSAY: system Xc^− (Homo sapiens)
Sequence (Q9UPY5 1-501): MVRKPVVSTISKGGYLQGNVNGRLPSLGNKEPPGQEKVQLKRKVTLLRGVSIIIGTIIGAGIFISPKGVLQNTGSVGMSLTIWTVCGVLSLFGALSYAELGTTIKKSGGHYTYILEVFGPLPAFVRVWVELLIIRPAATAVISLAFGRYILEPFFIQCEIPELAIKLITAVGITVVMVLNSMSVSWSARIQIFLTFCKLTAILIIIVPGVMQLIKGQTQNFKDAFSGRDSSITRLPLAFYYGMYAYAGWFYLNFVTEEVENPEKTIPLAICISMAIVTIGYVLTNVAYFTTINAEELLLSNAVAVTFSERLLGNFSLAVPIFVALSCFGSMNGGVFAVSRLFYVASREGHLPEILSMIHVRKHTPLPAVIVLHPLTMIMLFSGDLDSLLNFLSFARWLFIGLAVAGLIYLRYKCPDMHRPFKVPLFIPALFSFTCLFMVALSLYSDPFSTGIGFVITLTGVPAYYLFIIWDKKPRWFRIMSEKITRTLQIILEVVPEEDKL
Sequence (P08195 1-529 partner): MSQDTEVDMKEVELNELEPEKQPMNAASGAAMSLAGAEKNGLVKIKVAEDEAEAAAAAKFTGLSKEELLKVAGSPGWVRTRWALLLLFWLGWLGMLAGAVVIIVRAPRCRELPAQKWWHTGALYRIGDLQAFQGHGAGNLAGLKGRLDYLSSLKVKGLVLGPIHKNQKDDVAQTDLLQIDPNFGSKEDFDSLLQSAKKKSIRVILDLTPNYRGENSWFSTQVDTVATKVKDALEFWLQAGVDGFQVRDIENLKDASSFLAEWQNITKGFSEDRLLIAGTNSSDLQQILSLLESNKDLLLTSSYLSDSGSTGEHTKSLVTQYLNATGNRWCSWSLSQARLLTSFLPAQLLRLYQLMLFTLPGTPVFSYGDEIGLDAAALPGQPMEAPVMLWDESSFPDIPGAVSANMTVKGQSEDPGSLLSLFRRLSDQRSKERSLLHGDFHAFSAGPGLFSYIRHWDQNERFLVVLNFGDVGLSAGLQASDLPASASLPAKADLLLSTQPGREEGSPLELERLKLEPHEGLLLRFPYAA
PROCEDURE_DETAILS: [^14C]L-Cystine uptake assay
Format: cell-based
Design: endogenous in cells; host or cells: H4 cells
COND: H4 cells, sodium-free HEPES buffer, 0.5 μM L-[14C]Cystine and 4.5 μM L-Cystine, 1 hour at 37° C.; read-out: pIC50 [^14C] L-Cystine uptake assay (converted)
MEASURED_ENDPOINT: IC50

Reference set (5 entries):
> print(dat)
                                   molecule  measured.endpoint  experimental.result
1  Cc1cc2c(n(C)c1=O)-c1ccc(Cl)cc1C(C)C(=O)N2CC(=O)Nc1ccc(Cl)c(F)c1 (stereo not shown)               IC50          < 0.0158 µM
2  CC1C(=O)N(CC(=O)Nc2ccc(C(F)F)cc2)c2cc(N3CC(F)(F)C3)nc(F)c2-c2cccnc21 (single isomer, unassigned)               IC50          < 0.0158 µM
3  CC1C(=O)N(CC(=O)Nc2ccc(C(F)F)cc2)c2cc(OC(F)F)nc(Cl)c2-c2cccnc21 (single isomer, unassigned)               IC50          < 0.0158 µM
4  Cc1cc2c(c(C#N)n1)-c1cccnc1C(C)C(=O)N2CC(=O)Nc1ccc(C(F)(F)F)cc1 (stereo not shown)               IC50          < 0.0158 µM
5  COc1nc(C)cc2c1-c1ccnn1CC(=O)N2CC(=O)Nc1ccc(C(F)(F)F)cc1               IC50      0.1 to 0.501 µM

// batch mode: one IC50 value per listed entry
1. Cc1cc2c(cn1)-c1cccnc1CC(=O)N2CC(=O)Nc1ccc(C(F)(F)F)cc1
2. O=C(CN1C(=O)Cc2ncccc2-c2c1cc(N1CC3(CC3)C1)nc2F)Nc1ccc(C(F)F)cc1

[reply]
1. 0.1 to 0.501 µM
2. 0.0398 to 0.1 µM
